Measured pIC50 accompanies every entry in the list below.
Target: MRSA Pyk (Staphylococcus aureus)
Sequence (Q6GG09 whole entry): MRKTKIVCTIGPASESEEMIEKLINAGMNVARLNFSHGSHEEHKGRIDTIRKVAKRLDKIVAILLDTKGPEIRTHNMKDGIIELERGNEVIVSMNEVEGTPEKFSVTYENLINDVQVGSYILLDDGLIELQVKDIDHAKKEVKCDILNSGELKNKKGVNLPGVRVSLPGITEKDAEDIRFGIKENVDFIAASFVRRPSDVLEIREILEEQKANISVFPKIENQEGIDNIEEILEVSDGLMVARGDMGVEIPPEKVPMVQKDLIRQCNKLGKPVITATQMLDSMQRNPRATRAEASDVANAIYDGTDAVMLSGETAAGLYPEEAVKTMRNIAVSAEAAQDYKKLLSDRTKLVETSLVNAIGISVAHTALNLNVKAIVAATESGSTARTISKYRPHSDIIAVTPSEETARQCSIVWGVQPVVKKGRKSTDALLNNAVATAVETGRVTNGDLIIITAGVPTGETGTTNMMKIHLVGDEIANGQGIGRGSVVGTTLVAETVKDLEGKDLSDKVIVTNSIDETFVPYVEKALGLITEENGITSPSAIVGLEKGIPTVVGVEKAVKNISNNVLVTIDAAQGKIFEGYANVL
Test: MRSA pyruvate kinase (PK) activity, continuous LDH-coupled assay
pIC50: −log10 of the molar value.

Compound | pIC50
O=C(COc1cc2[nH]c(-c3cc4ccc(Br)cc4[nH]3)cc2cc1Cl)NCCC[n+]1ccccc1 [Compound 190, Acetate] | > 7.00
CN(C)CCNC(=O)CCCC(=O)c1c(-c2cc3cc(Cl)ccc3[nH]2)[nH]c2cc(Br)ccc12 [Compound 107] | > 7.00
CN(C)CCOc1cc(/C=C/c2cc3ccc(Br)cc3[nH]2)ccc1Cl [Compound 12] | 6.00 to 7.00
CN1CCN(CCCNC(=O)c2c(/C=C/c3ccc(Cl)cc3)[nH]c3cc(Br)ccc23)CC1 [Compound 43] | > 7.00
CN(C)CCc1c(-c2cc3cc(Cl)ccc3[nH]2)[nH]c2cc(Br)ccc12 [Compound 77] | > 7.00
COCCC1CCCN1CCNC(=O)c1c(-c2cc3cc(Cl)ccc3[nH]2)[nH]c2cc(Br)ccc12 (stereo not shown) [Compound 123] | > 7.00
O=C(NCCC[n+]1ccccc1)c1c(-c2cc3cc(Cl)ccc3[nH]2)[nH]c2cc(Br)ccc12 [Compound 144] | > 7.00
O=C(OCCN1CCOCC1)c1c(/C=C/c2ccc(Cl)cc2)[nH]c2cc(Br)ccc12 [Compound 62] | 6.00 to 7.00
O=C(O)C(F)(F)C(F)(F)C(=O)c1c(/C=C/c2ccc(Cl)cc2)[nH]c2cc(Br)ccc12 [Compound 5] | > 7.00
O=C(Nc1c(/C=C/c2ccc(Cl)cc2)[nH]c2cc(Br)ccc12)C(F)(F)F [Compound 93] | > 7.00
CC(C)c1nc2c(cc1-c1ccc(Cl)cc1)[nH]c1cc(Br)ccc12 [Compound 114] | 6.00 to 7.00
Nc1c(/C=C/c2ccc(Cl)cc2)[nH]c2cc(Br)ccc12 [Compound 92] | > 7.00
CN(C)CCNC(=O)c1c(NCc2ccc(Cl)cc2)[nH]c2cc(Br)ccc12 [Compound 83] | < 6.00
CN1CCN(CCC(=O)c2c(/C=C/c3cn4ccccc4n3)[nH]c3cc(Br)ccc23)CC1 [Compound 8] | 6.00 to 7.00
O=C(COc1cc2[nH]c(-c3cc4ccc(Br)cc4[nH]3)cc2cc1Cl)NS(=O)(=O)c1ccc(NC(=O)C(F)(F)F)cc1 [Compound 195] | > 7.00
O=C(O)CCCC(=O)c1c(-c2cc3cc(Cl)ccc3[nH]2)[nH]c2cc(-c3cc4cc(Cl)ccc4[nH]3)ccc12 [Compound 108] | < 6.00

From: patent US20180312493A1
